Taken from patent US20230357364A1.

Would you kindly list MFI (RBD binding to cell surface) for each of these binders?
# TARGET DESC: SARS-CoV-2 RBD (RBD-2) (SARS-CoV-2)
# PROTOCOL TEXT: flow, HeLa-ACE2, mAb:RBD=2:1

Task: Give the measured MFI (RBD binding to cell surface) for L12.cP07E10 (antibody, V domains shown, human IgG1) VH: EVQLVESGGGLIQPGGSLRLSCAASGFTVSSNYMSWVRQAPGKGLEWVSVIYSGGSTYYADSVKGRFTISRDNSKNTLYLQMNSLRAEDTAVYYCARDPYGYSSIWDGQGGHWGQGTLVTVSS VL: DVVMTQSPSSLSASVGDRVTITCQASQDISNYLNWYQQKPGKAPKLLIYDASNFATGVPSRFSGTGSGTDFTFTISSLQPEDIATYYCQQYDNLPITFGQGTRLEIK
Result: 237

Task: Item L12.cP09C07 (antibody, V domains shown, human IgG1) VH: QVQLVQSGAEVKKPGASVKVSCKASGYIYSGYFMHWVRQAPGQGLEWMGWISPDSGGANYAQTFQGRVTMTRDTSTTTAHMELSRLRSDDTAVYYCARGPRYSGTHFDYWGQGTLVTVSS VL: QSALTQPASVSGSPGQSLTISCTGTSSDVGGYNYVSWYQQHPDKAPKLMIYDVNNRPSGVSNRFSGSKSGSTASLTISGLQAEDEADYYCSSYAGSSTQVFGGGTKLIVL : provide MFI (RBD binding to cell surface)
Result: 5130

Task: Read off the recorded MFI (RBD binding to cell surface) for L12.bP12H09 (antibody, V domains shown, human IgG1) VH: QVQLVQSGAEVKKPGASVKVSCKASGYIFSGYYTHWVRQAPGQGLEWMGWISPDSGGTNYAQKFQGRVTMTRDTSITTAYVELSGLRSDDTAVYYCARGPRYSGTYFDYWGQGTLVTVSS VL: QSALTQPASVSGSPGQSITISCTGTSSDVGGYNHVSWYQQHPGKAPKLMIYDVSNRPSGVSNRFSGSKSGNTASLTISGLQAEDEADYYCSSYTSSSAQLFGGGTKLTVL
Result: 6560

Task: Give MFI (RBD binding to cell surface) for the following binder: L12.cP09D03 (antibody, V domains shown, human IgG1) VH: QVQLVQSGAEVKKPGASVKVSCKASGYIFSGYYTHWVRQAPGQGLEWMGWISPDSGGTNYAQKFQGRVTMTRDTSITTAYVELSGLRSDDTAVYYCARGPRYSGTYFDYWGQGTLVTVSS VL: QSVLTQPASVSGSPGQSITISCTGTSSDVGGYNYVSWYQQHPGKVPKLMIYDVSNRPSGVSNRFSGSKSGNTASLTISGLQAEDEADYYCSSYTSSSAQLFGGGTKLTVL
Result: 6640
